B1: Osa-1-4 twister ribozyme (parent)
chain: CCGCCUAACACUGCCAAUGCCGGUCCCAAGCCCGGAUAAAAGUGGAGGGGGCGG

# Variants of: B1
# Test method notes: self-cleavage, relative activity (ratio to wild type); higher = more cleavage; co-transcriptional
Value kind: self-cleavage

1) G30C G42C :: 0.04
2) C21A G50U :: 0.52
3) A46G G22U :: 0.06
4) G30A U18A :: 0.07
5) A46C C52G :: 0.09
6) A17C C26A :: 0.03
7) C11A G45U :: 0.06
8) G53C U18A :: 0.09
9) G34U G47U :: 0.1
10) A38C U24C :: 0.26
11) G35U G50C :: 0.79
12) C33U G19U :: 0.06
13) A38C C11U :: 0.92
14) C11U C20U :: 0.78
15) A28U G22A :: 0.34
16) A39U C9A :: 0.33
17) A16G G54C :: 0.99
18) A10G A39U :: 0.69
19) C27U U12C :: 0.07
20) A29U C14U :: 0.05
21) A16G U12A :: 0.97
22) A46U G44C :: 0.06
